- method.summary: Metabolic stability in human liver microsomes assessed as parent compound remaining at 1 uM after 30 mins by LC-MS/MS analysis
- Format: ADME
- test.conditions: read-out: Stability
observable: remaining at 0.5 h, 1 µM (%)

| molecule | unit.string | recorded.measurement |
| --- | --- | --- |
| CC1(COc2ccc(-c3ccc(F)cc3)cc2)Cn2cc([N+](=O)[O-])nc2O1 (racemic) | % | 88 |

---

- method.summary: Metabolic stability in CD1 mouse liver microsomes assessed as parent compound remaining at 1 uM after 1 hr by LC-MS/MS analysis
- Type: ADME
- test.conditions: read-out: Stability

| molecule | unit.string | remaining at 1 h, 1 µM |
| --- | --- | --- |
| CC1(CN2CCN(c3ccc(F)cc3)CC2)Cn2cc([N+](=O)[O-])nc2O1 (configuration not stated) | % | 14 |
| CC1(COc2ccc(C(F)(F)F)cn2)Cn2cc([N+](=O)[O-])nc2O1 (racemic) | % | 69 |

---

As shown below, each of these molecules has a reported AUC(0-t) value.
- method.summary: AUC (last) in Swiss albino mouse at 25 mg/kg, po by LCMS/MS analysis
- Type: ADME, organism-based
- Parameters: dose 25 mg/kg, route oral, time 0 - last
- test.conditions: in vivo

| molecule | AUC(0-t) / ng·h/mL |
| --- | --- |
| CC1(COc2ccc(-c3ccc(F)cc3)cc2)Cn2cc([N+](=O)[O-])nc2O1 (racemic) | 7580 |
| CC1(COc2ccc(OC(F)(F)F)cc2)Cn2cc([N+](=O)[O-])nc2O1 (racemic) | 33500 |
| O=[N+]([O-])c1cn2c(n1)OC(COc1ccc(OC(F)(F)F)cc1)C2 (centres undefined) | 14800 |
| CC1(COc2ccc(-c3ccc(OC(F)(F)F)cc3)cc2)Cn2cc([N+](=O)[O-])nc2O1 (centres undefined) | 9810 |

---

# clearance per record follows
- method.summary: Clearance in Swiss albino mouse at 1 mg/kg, iv by LCMS/MS analysis
- Type: ADME, organism-based
- test.conditions: in vivo
observable: clearance (mL/min/kg)

| compound | observable | recorded.measurement |
| --- | --- | --- |
| O=[N+]([O-])c1cn2c(n1)OC(COc1ccc(OC(F)(F)F)cc1)C2 (stereo not given) | clearance | 13 |
| CC1(COc2ccc(-c3ccc(OC(F)(F)F)cc3)cc2)Cn2cc([N+](=O)[O-])nc2O1 (stereo not given) | clearance | 7.6 |
| CC1(COc2ccc(-c3ccc(F)cc3)cc2)Cn2cc([N+](=O)[O-])nc2O1 (racemic) | clearance | 28 |
| CC1(COc2ccc(OC(F)(F)F)cc2)Cn2cc([N+](=O)[O-])nc2O1 (racemic) | clearance | 9.5 |
| C[C@]1(COc2ccc(OC(F)(F)F)cc2)Cn2cc([N+](=O)[O-])nc2O1 | clearance | 11 |

---

- method.summary: AUC (last) in Swiss albino mouse at 12.5 mg/kg, po by LCMS/MS analysis
- Type: ADME, organism-based
- Parameters: dose 12.5 mg/kg, route oral, time 0 - last
- test.conditions: in vivo
observable: AUC(0-t) (ng·h/mL)

| molecular.string | recorded.measurement |
| --- | --- |
| C[C@]1(COc2ccc(OC(F)(F)F)cc2)Cn2cc([N+](=O)[O-])nc2O1 | 15800 |

---

We begin with a simple list: items and their reported Cmax.
- method.summary: Cmax in Swiss albino mouse at 25 mg/kg, po by LCMS/MS analysis
- Format: ADME, organism-based
- Parameters: dose 25 mg/kg, route oral
- test.conditions: in vivo

| molecule | Cmax / ng/mL |
| --- | --- |
| O=[N+]([O-])c1cn2c(n1)OC(COc1ccc(OC(F)(F)F)cc1)C2 (centres undefined) | 1800 |
| CC1(COc2ccc(-c3ccc(OC(F)(F)F)cc3)cc2)Cn2cc([N+](=O)[O-])nc2O1 (centres undefined) | 290 |
| CC1(COc2ccc(OC(F)(F)F)cc2)Cn2cc([N+](=O)[O-])nc2O1 (racemic) | 4100 |
| CC1(COc2ccc(-c3ccc(F)cc3)cc2)Cn2cc([N+](=O)[O-])nc2O1 (racemic) | 700 |

---

- method.summary: Metabolic stability in human liver microsomes assessed as parent compound remaining at 1 uM after 1 hr by LC-MS/MS analysis
- Format: ADME
- test.conditions: read-out: Stability

| compound | remaining at 1 h, 1 µM [%] |
| --- | --- |
| CC1(CN2CCN(c3ccc(F)cc3)CC2)Cn2cc([N+](=O)[O-])nc2O1 (configuration not stated) | 49 |
| CC1(COc2ccc(C(F)(F)F)cn2)Cn2cc([N+](=O)[O-])nc2O1 (racemic) | 84 |

---

- method.summary: Metabolic stability in hamster liver microsomes assessed as parent compound remaining at 1 uM after 30 mins by LC-MS/MS analysis
- Type: ADME
- test.conditions: cricetinae, read-out: Stability

| compound | unit.string | remaining at 0.5 h, 1 µM |
| --- | --- | --- |
| CC1(COc2ccc(-c3ccc(F)cc3)cc2)Cn2cc([N+](=O)[O-])nc2O1 (racemic) | % | 42 |

---

Form field: Tmax (one value per entry).
- method.summary: Tmax in Swiss albino mouse at 25 mg/kg, po by LCMS/MS analysis
- Assay type: ADME, organism-based
- test.conditions: in vivo

| molecule | Tmax, h |
| --- | --- |
| CC1(COc2ccc(-c3ccc(F)cc3)cc2)Cn2cc([N+](=O)[O-])nc2O1 (racemic) | 6 |
| CC1(COc2ccc(OC(F)(F)F)cc2)Cn2cc([N+](=O)[O-])nc2O1 (racemic) | 4 |
| O=[N+]([O-])c1cn2c(n1)OC(COc1ccc(OC(F)(F)F)cc1)C2 (centres undefined) | 1 |
| CC1(COc2ccc(-c3ccc(OC(F)(F)F)cc3)cc2)Cn2cc([N+](=O)[O-])nc2O1 (centres undefined) | 6 |

---

In this section, each of the molecules is paired with its reported half-life.
- method.summary: Half life in Swiss albino mouse at 1 mg/kg, iv by LCMS/MS analysis
- Format: ADME, organism-based
- test.conditions: in vivo
observable: half-life (h)

| molecule | recorded.measurement |
| --- | --- |
| C[C@]1(COc2ccc(OC(F)(F)F)cc2)Cn2cc([N+](=O)[O-])nc2O1 | 2.7 |
| CC1(COc2ccc(-c3ccc(F)cc3)cc2)Cn2cc([N+](=O)[O-])nc2O1 (racemic) | 3.8 |
| CC1(COc2ccc(OC(F)(F)F)cc2)Cn2cc([N+](=O)[O-])nc2O1 (racemic) | 2.2 |
| CC1(COc2ccc(-c3ccc(OC(F)(F)F)cc3)cc2)Cn2cc([N+](=O)[O-])nc2O1 (stereo not given) | 11 |
| O=[N+]([O-])c1cn2c(n1)OC(COc1ccc(OC(F)(F)F)cc1)C2 (stereo not given) | 3.2 |

---

- method.summary: Cmax in Swiss albino mouse at 12.5 mg/kg, po by LCMS/MS analysis
- Assay type: ADME, organism-based
- Parameters: dose 12.5 mg/kg, route oral
- test.conditions: in vivo

| molecular.string | Cmax [ng/mL] |
| --- | --- |
| C[C@]1(COc2ccc(OC(F)(F)F)cc2)Cn2cc([N+](=O)[O-])nc2O1 | 1300 |

---

- method.summary: Volume of distribution at steady state in Swiss albino mouse at 1 mg/kg, iv by LCMS/MS analysis
- Assay type: ADME, organism-based
- test.conditions: in vivo, read-out: Vdss
observable: Vd (L/kg)

| molecule | observable | unit.string | recorded.measurement |
| --- | --- | --- | --- |
| CC1(COc2ccc(OC(F)(F)F)cc2)Cn2cc([N+](=O)[O-])nc2O1 (racemic) | Vd | L/kg | 1.7 |
| C[C@]1(COc2ccc(OC(F)(F)F)cc2)Cn2cc([N+](=O)[O-])nc2O1 | Vd | L/kg | 2.6 |
| O=[N+]([O-])c1cn2c(n1)OC(COc1ccc(OC(F)(F)F)cc1)C2 (stereo not given) | Vd | L/kg | 2.2 |
| CC1(COc2ccc(-c3ccc(F)cc3)cc2)Cn2cc([N+](=O)[O-])nc2O1 (racemic) | Vd | L/kg | 7.5 |
| CC1(COc2ccc(-c3ccc(OC(F)(F)F)cc3)cc2)Cn2cc([N+](=O)[O-])nc2O1 (stereo not given) | Vd | L/kg | 5.7 |

---

- method.summary: Metabolic stability in hamster liver microsomes assessed as parent compound remaining at 1 uM after 1 hr by LC-MS/MS analysis
- Assay type: ADME
- test.conditions: cricetinae, read-out: Stability
observable: remaining at 1 h, 1 µM (%)

| molecular.string | unit.string | recorded.measurement |
| --- | --- | --- |
| C[C@]1(COc2ccc(N3CCC(Oc4ccc(OC(F)(F)F)cc4)CC3)cc2)Cn2cc([N+](=O)[O-])nc2O1 | % | 55 |
